# Tested on: PPARg:RXRa 90nM:30nM, anti-RXR (NR concentration 90 nM, RXRa partner concentration 30 nM)
# protocol description: PBM binding z-score (relative to random genomic background probes); higher = stronger binding; sequences stand for … in GC…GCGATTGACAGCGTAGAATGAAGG
metric: PBM binding z-score
Number only, please.

Reference set (3 entries):
[[record]]
residue_codes = "TCGAGTTGGTCAAAGGTCACACACTCGAAATGCG"
target = "PPARg:RXRa 90nM:30nM, anti-RXR (NR concentration 90 nM, RXRa partner concentration 30 nM)"
reported = 11.3

[[record]]
residue_codes = "GATACAGGGTCTGCTAGAGGCCAGAGTATGGAAA"
target = "PPARg:RXRa 90nM:30nM, anti-RXR (NR concentration 90 nM, RXRa partner concentration 30 nM)"
reported = -0.382

[[record]]
residue_codes = "CATACAGGGTTAGCTAGGCCAGAGTAGGGACGGC"
target = "PPARg:RXRa 90nM:30nM, anti-RXR (NR concentration 90 nM, RXRa partner concentration 30 nM)"
reported = 0.397


Query :: Answer briefly: PBM binding z-score recorded on PPARg:RXRa 90nM:30nM, anti-RXR (NR concentration 90 nM, RXRa partner concentration 30 nM) for ATACCAAGGTGATCGTGAGGTCATTGATACTAAC
Result :: 1.25

Query :: Answer briefly: PBM binding z-score recorded on PPARg:RXRa 90nM:30nM, anti-RXR (NR concentration 90 nM, RXRa partner concentration 30 nM) for CGTCCAAGGTCAGAGAGGTAAGTGAATGCCGAGT
Result :: 1.42

Query :: Answer briefly: PBM binding z-score recorded on PPARg:RXRa 90nM:30nM, anti-RXR (NR concentration 90 nM, RXRa partner concentration 30 nM) for TCGAGTAGGTTAGGGGCATTCCGAATGGCGTCGA
Result :: 1.64

Query :: Answer briefly: PBM binding z-score recorded on PPARg:RXRa 90nM:30nM, anti-RXR (NR concentration 90 nM, RXRa partner concentration 30 nM) for TCCTATAGGTAAACAGGTGAAAGTCCGTAAGTTA
Result :: 3.17

Query :: Answer briefly: PBM binding z-score recorded on PPARg:RXRa 90nM:30nM, anti-RXR (NR concentration 90 nM, RXRa partner concentration 30 nM) for ACAGACCGGTGAGTGAAGGTAACTCAGCTGGACG
Result :: -1.01
